Test system: dopamine D3 receptor (Homo sapiens, UniProt P35462)
Sequence (P35462 whole entry, species assumed): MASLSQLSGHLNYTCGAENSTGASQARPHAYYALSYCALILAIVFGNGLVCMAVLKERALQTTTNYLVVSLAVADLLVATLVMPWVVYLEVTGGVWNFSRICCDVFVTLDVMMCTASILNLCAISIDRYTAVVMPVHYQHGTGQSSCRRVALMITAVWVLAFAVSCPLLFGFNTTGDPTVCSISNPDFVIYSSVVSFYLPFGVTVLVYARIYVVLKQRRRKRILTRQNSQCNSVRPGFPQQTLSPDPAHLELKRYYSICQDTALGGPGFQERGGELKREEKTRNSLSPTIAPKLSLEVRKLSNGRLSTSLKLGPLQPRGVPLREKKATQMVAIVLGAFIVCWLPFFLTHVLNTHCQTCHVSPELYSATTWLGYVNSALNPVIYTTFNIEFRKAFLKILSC
Test: D3/D2 agonist assay, functional potency at D3 receptor
Condition label: methods described in WO 2004/052372; read-out: functional potency at the D3 receptor, expressed as an EC50
Value type: EC50 (nM)

* CCCN1CC(c2cccc3[nH]ncc23)C1 [Example 13, 4-(1-propylazetidin-3-yl)-1H-indazole] | 38
